Tested on: SB.msgc-1
experimentSummary: AC50 for growth inhibition (viability) (log10 M); higher = less potent
condition: SB.msgc-1 (sporadic gastric cancer)
AC50 for growth inhibition (log10 M) overview
measuredParameter: AC50 for growth inhibition (log10 M)

[[record]]
molecule = "Cc1cccc(-c2[nH]c(C(C)(C)C)nc2-c2ccc3c(c2)OCO3)n1"
measurementtarget = "SB.msgc-1"
experimentalresult = -4.88

[[record]]
molecule = "N#C/N=C(\\NCCCCCCOc1ccc(Cl)cc1)Nc1ccncc1 [GMX-1778]"
measurementtarget = "SB.msgc-1"
experimentalresult = -6.88

[[record]]
molecule = "N\\C1=N\\C2=C(N=C[N]2COC(CO)CO)C(=O)N1 [Ganciclovir]"
measurementtarget = "SB.msgc-1"
experimentalresult = -5.28

[[record]]
molecule = "CC/1=C(/C(CC(=O)N1)C2=CC=C(C=C2)C(F)(F)F)C(=O)NC3=C(F)C=C4[NH]N=CC4=C3 (configuration not stated)"
measurementtarget = "SB.msgc-1"
experimentalresult = -5.03

[[record]]
molecule = "CCn1nnc2c(N3CCOCC3)nc(-c3ccc(NC(=O)Nc4ccc(C(=O)N5CCN(C)CC5)cc4)cc3)nc21 [PKI-402]"
measurementtarget = "SB.msgc-1"
experimentalresult = -5.88

[[record]]
molecule = "CC(C)(F)C[C@H](N[C@@H](c1ccc(-c2ccc([S+](C)(=O)[O-])cc2)cc1)C(F)(F)F)C(=O)NC1(C#N)CC1 [Odanacatib]"
measurementtarget = "SB.msgc-1"
experimentalresult = -4.88

[[record]]
molecule = "C[C@@H]1C[C@@H]([C@H](O)CC2CC(=O)NC(=O)C2)C(=O)[C@@H](C)C1 [cycloheximide]"
measurementtarget = "SB.msgc-1"
experimentalresult = -6.53

[[record]]
molecule = "COC1=CC(=CC=C1)C2=CC=C(NC(=O)/C3=C(/CCC3)C(O)=O)C(=C2)F [Vidofludimus]"
measurementtarget = "SB.msgc-1"
experimentalresult = -4.88

[[record]]
molecule = "C\\C1=C(\\C=C(\\C#N)C(=O)N1)C2=CC=NC=C2 [Milrinone]"
measurementtarget = "SB.msgc-1"
experimentalresult = -4.73

[[record]]
molecule = "O=C(Nc1cccc(Br)c1)c1cccc([S+](=O)([O-])N2CCCCCC2)c1 [Ak-7]"
measurementtarget = "SB.msgc-1"
experimentalresult = -4.73

[[record]]
molecule = "COc1ccc(Nc2cc(-c3cnc(N)nc3)nc(N3CCOCC3)n2)cn1 [NIBR-17]"
measurementtarget = "SB.msgc-1"
experimentalresult = -5.18

[[record]]
molecule = "Nc1nc(N)c2nc(-c3cccc(O)c3)c(-c3cccc(O)c3)nc2n1"
measurementtarget = "SB.msgc-1"
experimentalresult = -5.18

[[record]]
molecule = "C[C@H]1CN(C[C@@H](C)O1)CC(=O)NC2=CC=C3SC4=C(CC3=C2)C=CC=C4\\C5=C\\C(=O)\\C=C(/O5)N6CCOCC6"
measurementtarget = "SB.msgc-1"
experimentalresult = -5.28

[[record]]
molecule = "CC(C)N(CCCNC(=O)Nc1ccc(C(C)(C)C)cc1)C[C@H]1O[C@@H](n2cc(Br)c3c(N)ncnc32)[C@H](O)[C@@H]1O [SGC0946]"
measurementtarget = "SB.msgc-1"
experimentalresult = -4.53

[[record]]
molecule = "CN(c1ncccc1CNc1nc(Nc2ccc3c(c2)CC(=O)N3)ncc1C(F)(F)F)[S+](C)(=O)[O-]"
measurementtarget = "SB.msgc-1"
experimentalresult = -5.13

[[record]]
molecule = "N#CC[C@H](C1CCCC1)n1cc(-c2ncnc3[nH]ccc23)cn1 [Ruxolitinib]"
measurementtarget = "SB.msgc-1"
experimentalresult = -4.73

[[record]]
molecule = "Cc1n[nH]c2ccc(-c3cncc(OC[C@@H](N)Cc4ccccc4)c3)cc12"
measurementtarget = "SB.msgc-1"
experimentalresult = -5.43

